system: Sonic hedgehog protein (Shh); experiment: small-molecule binders of Shh protein, primary screen, biochemical, small-molecule microarray, 635/667 nm fluorescence (AID 1151); conditions: small-molecule microarray binding, 635 nm fluorescence; higher = more signal;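 also: Shh protein binding to compounds spotted on small-molecule microarray slides; score combines spot fluorescence intensity with signal-to-noise across triplicate slides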
metric: composite z-score
Give bare numbers.

Worked set:
{"compound.string": "C[C@H]1CC[C@@H](C(=O)O)N[C@@H]1c1ccc(C#CCN(C)C)cc1", "endpoint.result": 0.427}
{"compound.string": "O=C1[C@H]2[C@H]3[C@H](O)[C@H](O)CC(=NOCc4ccccc4)[C@H]3CC[C@H]2C(=O)N1c1cccc(Oc2ccccc2)c1", "endpoint.result": 1.24}
{"compound.string": "CC(=O)OC[C@H]1O[C@@H](ON=C[C@@H](C)[C@H](OCc2ccccc2)C(C)C)[C@H](OC(C)=O)[C@@H](OC(C)=O)[C@@H]1OC(C)=O", "endpoint.result": -0.925}
{"compound.string": "C=CC[C@@H]1C=C[C@H](ON=Cc2ccc(C(=O)N3[C@H](c4ccc(C)cc4)[C@@H](C)CC[C@H]3C(=O)OC)cc2)[C@@H](CO)O1", "endpoint.result": 0.68}

Provide composite z-score for all items below, preserving their order.
1. COc1ccc(O[C@H]2C=C[C@@H](c3ccccc3)O[C@@H]2COC(=O)N2CCCCC2)cc1
2. CCOC(=O)NN=C1C[C@@H](O)[C@@H](O)[C@@H]2[C@@H]3C(=O)N(C4CCCCC4)C(=O)[C@@H]3CC[C@@H]12
3. CC(C)(C)OC(=O)CC[C@]1(C(N)=O)COC(c2ccc(OCCCO)cc2)=N1

Result string:
[0.147, 0.0717, -0.769]
